Hello, the source for this data is PubChem BioAssay AID743449, in case you need it.

inhibition: recorded values
experiment: YAP1 pathway inhibitors via CTGF transcript, primary screen, DLD1 colon cancer cells, RT-qPCR, single point (AID 743449); conditions: DLD1 CTGF mRNA qPCR, 24 h; at 12.5 µM; stronger effect = higher value;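 also: 0% = neutral control wells and 100% = dasatinib control wells; higher means stronger suppression of CTGF expression like dasatinib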
Hit rate of the full screen: of about 9,900 compounds, about 90 (0.9%) were called active. Not shown: some 2% with an inconclusive outcome. What follows is part of a selection rich in actives, with near analogues and random picks from the rest.
Dear colleague, please return just the value in %, with no unit written.

{"Test smiles": "CCCC(=O)Nc1ccc2c(c1)C(=O)N(C)[C@H]1CC[C@@H](CC(=O)N3CCCCC3)O[C@@H]1CO2", "inhibition / %": -2.53}
{"Test smiles": "O=C(C[C@@H]1CC[C@@H]2[C@H](COC[C@H](O)CN2C(=O)c2ccc(F)cc2)O1)N1CCCCC1", "inhibition / %": 4.67}
{"Test smiles": "Cc1ccc(S(=O)(=O)N[C@H]2C=C[C@H](CC(=O)NCc3ccc(Cl)c(Cl)c3)O[C@@H]2CO)cc1", "inhibition / %": -5.24}

Now examine the next entry.
Exercise: If you can, please state the reported inhibition value of O=C(c1ccccc1F)N1CC[C@H]2[C@H](CO)Nc3ccc(Br)cc3[C@H]21 .
Key: -3.54

----------
experiment: YAP1 pathway inhibitors via CTGF transcript, primary screen, DLD1 colon cancer cells, RT-qPCR, single point (AID 743449); details: DLD1 CTGF mRNA qPCR, 24 h; at 12.5 µM
About 90 (0.9%) of roughly 9,900 compounds were called active. Roughly 2% stayed inconclusive and do not appear here.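 Rule for the calls: active = mean normalized replicate activity at least 50 and at least half of replicates each reaching 50; inconclusive = only one of the two criteria met; inactive = neither criterion met.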 The sample as a whole holds a higher share of actives than the screen did.
Mark one answer only. Choices: active, inactive

{"Test smiles": "Cc1ccc(S(=O)(=O)Nc2ccc3c(c2)CC(=O)N([C@H](C)CO)C[C@@H](C)[C@H](CN(C)S(=O)(=O)c2ccccc2)O3)cc1", "Assigned label": "inactive"}
{"Test smiles": "O=C(CC1CC1)N1CC(=O)N2[C@@H](CO)[C@H](c3ccc(/C=C/c4ccccc4)cc3)[C@@H]2C1", "Assigned label": "active"}
{"Test smiles": "Cc1ccc(S(=O)(=O)N[C@H]2C=C[C@H](CC(=O)NCc3ccc(Cl)c(Cl)c3)O[C@H]2CO)cc1", "Assigned label": "active"}
{"Test smiles": "COCC(=O)N1CC(=O)N2[C@H](CO)[C@H](c3ccc(C#CC4CC4)cc3)[C@@H]2C1", "Assigned label": "inactive"}
{"Test smiles": "Cc1ccc(S(=O)(=O)Nc2ccc3c(c2)C(=O)N([C@H](C)CO)C[C@H](C)[C@@H](CN(C)S(=O)(=O)c2cccs2)OCCCC[C@H](C)O3)cc1", "Assigned label": "inactive"}

Exercise: Entry Cc1noc(C)c1NC(=O)N(C)C[C@@H]1OCc2ccccc2-c2c(n(C)c3ccccc23)C(=O)N([C@H](C)CO)C[C@@H]1C : call = ?
Key: inactive

----------
test: YAP1 pathway inhibitors via CTGF transcript, primary screen, DLD1 colon cancer cells, RT-qPCR, single point (AID 743449); conditions: DLD1 CTGF mRNA qPCR, 24 h; at 12.5 µM; stronger effect = higher value;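 also: 0% = neutral control wells and 100% = dasatinib control wells; higher means stronger suppression of CTGF expression like dasatinib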
Screen size: about 9,900 compounds; about 90 (0.9%) were called active. Not shown: some 2% with an inconclusive outcome. What follows is part of a selection rich in actives, with near analogues and random picks from the rest.
Reported values of inhibition for individual entries
Dear colleague, please return just the value in %, with no unit written.

{"Test smiles": "Cc1cccc(S(=O)(=O)N2C[C@H](O)COC[C@@H]3O[C@@H](CC(=O)Nc4ccccc4)CC[C@H]32)c1", "inhibition, %": 8.1}

Exercise: What does the record list as inhibition for COc1ccc(CN(C)C[C@@H]2OCCCC[C@@H](C)Oc3ccc(NC(=O)C4CCCCC4)cc3C(=O)N([C@H](C)CO)C[C@@H]2C)cc1 ?
Key: -11.6

Exercise: // lookup inhibition for C[C@@H]1CCCCO[C@H](CN(C)Cc2ccc(C(=O)O)cc2)[C@@H](C)CN([C@@H](C)CO)C(=O)c2cc(N(C)C)ccc2O1
Key: -1.12

Exercise: Request the reported inhibition associated with COc1ccc2c3c(n(C)c2c1)[C@@H](CO)N(S(C)(=O)=O)CC31CCN(Cc2nccs2)CC1
Key: 14

----------
Reported inhibition values follow for various molecules
assay: YAP1 pathway inhibitors via CTGF transcript, primary screen, DLD1 colon cancer cells, RT-qPCR, single point (AID 743449); conditions: DLD1 CTGF mRNA qPCR, 24 h; at 12.5 µM; stronger effect = higher value;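 also: 0% = neutral control wells and 100% = dasatinib control wells; higher means stronger suppression of CTGF expression like dasatinib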
Screen size: about 9,900 compounds; about 90 (0.9%) were called active. About 2% were inconclusive and are not listed. Shown is part of a subset that was picked to be rich in actives.
Entry rule: numbers only, all in %.

// below: answered molecules
{"Test smiles": "COc1ccc(NC(=O)N(C)C[C@H]2Oc3c(NC(=O)CCCCCC(=O)Nc4ccccc4N)cccc3C(=O)N([C@@H](C)CO)C[C@@H]2C)cc1", "Measurement unit": "%", "inhibition": 30.8}
{"Test smiles": "C[C@H]1CN([C@@H](C)CO)C(=O)c2ccccc2-c2ccccc2CO[C@@H]1CN(C)C(=O)[C@H](Cc1ccccc1)N(C)C", "Measurement unit": "%", "inhibition": -17.8}
{"Test smiles": "COc1ccccc1-c1cccc(-c2nc(C(=O)NCc3ccncc3)cc3c2[C@@H](CCO)N([S@](=O)C(C)(C)C)C3)c1", "Measurement unit": "%", "inhibition": 20}
{"Test smiles": "O=C(Nc1ccc(F)cc1)N1CC(=O)N2[C@H](C1)[C@@H](c1ccc(-c3cccc(F)c3)cc1)[C@@H]2CO", "Measurement unit": "%", "inhibition": -72.3}
{"Test smiles": "C[C@@H]1CN([C@@H](C)CO)C(=O)c2cccc(NC(=O)c3nc4ccccc4s3)c2O[C@H]1CN(C)C(=O)Nc1ccc2c(c1)OCO2", "Measurement unit": "%", "inhibition": 52.6}

Exercise: If you can, please state the reported inhibition value of COc1cccc(NC(=O)N[C@H]2CC[C@@H](CC(=O)N3CCN(C)CC3)O[C@@H]2CO)c1 .
Key: -6.95

----------
assay: YAP1 pathway inhibitors via CTGF transcript, primary screen, DLD1 colon cancer cells, RT-qPCR, single point (AID 743449); conditions: DLD1 CTGF mRNA qPCR, 24 h; at 12.5 µM;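 also: 0% = neutral control wells and 100% = dasatinib control wells; higher means stronger suppression of CTGF expression like dasatinib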
Hit rate of the full screen: of about 9,900 compounds, about 90 (0.9%) were called active. About 2% were inconclusive and are not listed.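 How the source made its calls: active means mean normalized replicate activity at least 50 and at least half of replicates each reaching 50; inconclusive means only one of the two criteria met; inactive means neither criterion met.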 The entries come from a sample that favours actives as a whole.
Pick one: 1 (yes) = active, 0 (no) = inactive

{"Molecule": "COc1cccc(NC(=O)C[C@@H]2CC[C@@H]3[C@@H](COc4ccc(NC(=O)C5CC5)cc4C(=O)N3C)O2)c1", "Assigned label": "0 (no)"}
{"Molecule": "CC(C)(C)S(=O)N1Cc2cc(C(=O)NCc3ccc4c(c3)OCO4)nc(-c3cccc(-c4cccc(F)c4)c3)c2[C@@H]1CCO (some centres not stated)", "Assigned label": "1 (yes)"}
{"Molecule": "CN(C)C(=O)c1cc2c(c(-c3cccc(C4=CCCCC4)c3)n1)[C@@H](CCO)N(S(C)(=O)=O)C2", "Assigned label": "0 (no)"}
{"Molecule": "C[C@H]1CN([C@@H](C)CO)C(=O)c2ccccc2-c2ccccc2CO[C@H]1CN(C)S(=O)(=O)c1cn(C)cn1", "Assigned label": "0 (no)"}
{"Molecule": "CCNC(=O)c1cc2c(c(-c3cccc(-c4ccccc4F)c3)n1)[C@@H](CCO)N(C(=O)CC1CC1)C2", "Assigned label": "1 (yes)"}
{"Molecule": "C[C@@H]1CCCCO[C@H](CN(C)Cc2ccncc2)[C@H](C)CN([C@H](C)CO)C(=O)c2cc(NC(=O)Cc3ccccc3)ccc2O1", "Assigned label": "0 (no)"}

Exercise: Assay outcome for COC(=O)C[C@H]1CC[C@@H](N)[C@@H](CO)O1 : what was it?
Key: 0 (no)

Exercise: Hey, what did the test say about CCC(=O)N1Cc2cc(C(=O)NCc3cccc(F)c3)nc(-c3cccc(C4=CCCC4)c3)c2[C@H]1CCO ?
Key: 1 (yes)

Exercise: Called result for CC(C)(C)[S@](=O)N1Cc2cc(C(=O)NCc3ccccn3)nc(-c3cccc(-c4ccccc4F)c3)c2[C@@H]1CCO
Key: 1 (yes)

Exercise: GET /call?item= COc1ccc2c3c([nH]c2c1)[C@H](CO)NCC31CCN(C(=O)Cc2cccnc2)CC1 returns the recorded outcome of this test.
Key: 1 (yes)

Exercise: State the result this test recorded for CCCC(=O)N1CCC2(CC1)CN[C@@H](CO)c1[nH]c3cc(OC)ccc3c12 .
Key: 0 (no)

Exercise: Any idea what this test logged for COc1ccc(C(=O)N2C[C@@H]3[C@H](c4ccccc42)[C@H](CO)N3C(=O)NC(C)C)cc1 ?
Key: 0 (no)

Exercise: # fetch the recorded call for CCN1Cc2cc(C(=O)Nc3nccs3)nc(-c3cccc(C4=CCCC4)c3)c2[C@H]1CCO here
Key: 0 (no)

Exercise: Any idea what this test logged for NCC[C@H]1CC[C@H](NC(=O)NC2CCCCC2)[C@@H](CO)O1 ?
Key: 0 (no)

Exercise: For this molecule, state the assay outcome: COCC#Cc1ccc([C@@H]2[C@@H](CO)N3CCCCN(C(=O)NC4CCCC4)C[C@@H]23)cc1
Key: 0 (no)

Exercise: Can you look up the reported call for CCCC(=O)N1CCC2(CC1)CN[C@H](CO)c1[nH]c3cc(OC)ccc3c12 for me?
Key: 0 (no)

Exercise: Hi, do you know how C/C=C/c1ccc([C@@H]2[C@@H](C#N)N(c3nc(CC)cs3)[C@@H]2CO)cc1 came out in this test?
Key: 0 (no)
